- ASSAY: E. coli acrAB mutant growth effects, primary screen, E. coli filamentation inducers, strain DRC39, OD650, 24 h (AID 1178);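 further: growth measured as culture turbidity by optical density at 650 nm; test concentration not given here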
- CONDITION_INFO: higher = more signal, called active from +8 up or from −8 down
The following ranges of z-score define the classes used here: low (below -0.3), moderate (-0.3 to below 0.3), high (0.3 or more)

## Task Form field 'band' for `O=C1[C@H]2[C@H]3[C@H](O)[C@H](O)CC(=NO[C@@H]4O[C@H](CO)[C@@H](O)[C@H](O)[C@H]4O)[C@@H]3CC[C@H]2C(=O)N1Cc1ccc2c(c1)OCO2`
## Result low

## Task Form field 'band' for `O=C(NN=C1C[C@@H](O)[C@@H](O)[C@@H]2[C@@H]3C(=O)N(c4ccc(F)cc4F)C(=O)[C@@H]3CC[C@@H]12)OCc1ccccc1`
## Result high

## Task Form field 'band' for `CC(C)[Si]1(C(C)C)O[C@@H](c2ccccc2)c2cc(C3CC3)nc(-c3ccccc3)c21`
## Result moderate

## Task Form field 'band' for `CCOC(=O)NN=C1C[C@@H](O)[C@@H](O)[C@@H]2[C@@H]3C(=O)N(C4CCCCC4)C(=O)[C@@H]3CC[C@@H]12`
## Result low

## Task Form field 'band' for `COc1ccc(O[C@H]2C=C[C@@H](c3ccccc3)O[C@@H]2CON=C[C@@H](C)[C@H](OCc2ccccc2)C(C)C)cc1`
## Result high

## Task Form field 'band' for CN(C)c1ccc(C(O)C2C=CC3C(=O)N(c4ccccc4)C(=O)C3N2Nc2ccccc2F)cc1 (stereo not drawn)
## Result low

## Task Form field 'band' for `CCc1cccc(NC(=O)O[C@H]2[C@H](OC(=O)Nc3ccc4c(c3)OCO4)[C@@H](OC(=O)Nc3ccc4c(c3)OCO4)[C@@H](OC)O[C@@H]2CO)c1`
## Result high

## Task Form field 'band' for `CC(C)CON=C1[C@H]2CCn3c(=O)n(-c4ccccc4)c(=O)n3[C@H]2[C@H](O)[C@@H]2O[C@H]12`
## Result moderate

## Task Form field 'band' for `O=C(CS)NCCCCCNC(=O)[C@H]1C[C@H]2C(=O)N3CCC[C@H]3C(=O)N2[C@H]1c1cccc(OCCO)c1`
## Result moderate

## Task Form field 'band' for `CC(C)[C@@H](OCc1ccccc1)[C@H](C)C=NOC[C@@H](C)[C@H](OCc1ccccc1)C(C)C`
## Result high

## Task Form field 'band' for `C=C(COC)/C(=C/C[C@H](OC(=O)c1ccncc1)c1ccc(CO)o1)c1cc(C(=O)OC)ccc1OC`
## Result moderate

## Task Form field 'band' for `[N-]=[N+]=NCc1ccccc1[C@@H]1OC(c2ccc(OCCCO)cc2)=N[C@]1(Cc1ccccc1)C(=O)N1CCOCC1`
## Result high

## Task Form field 'band' for `CCCNC(=O)[C@@H]1c2ccccc2C(=O)N(c2ccc(C)cn2)[C@H]1c1ccc(CO)cc1`
## Result moderate

## Task Form field 'band' for `CO[C@H]1O[C@H](CO)[C@@H](OC(=O)Nc2ccc3c(c2)OCO3)[C@H](OC(=O)Nc2ccccc2-c2ccccc2)[C@@H]1OC(=O)Nc1ccccc1-c1ccccc1`
## Result moderate

## Task Form field 'band' for `O=C1C2=CC[C@H]3C(=O)N(Cc4ccc5c(c4)OCO5)C(=O)[C@H]3[C@H]2[C@H](O)[C@@H]2O[C@H]12`
## Result moderate

## Task Form field 'band' for `C[C@H](c1ccccc1)N1C(=O)[C@H]2[C@@H]3C(=CC[C@H]2C1=O)C(=O)[C@H]1O[C@H]1[C@H]3O`
## Result moderate

## Task Form field 'band' for CN1C(=O)C2C(C1=O)C1C=C(CCCO)C2C(c2ccc(CN3CCCC3)cc2)N1C (stereo not drawn)
## Result low

## Task Form field 'band' for `COc1ccc(OC[C@H]2Cc3c(-c4ccccc4)nc4c(c3CO2)CN(CCOc2ccccc2)CC4)cc1`
## Result low

## Task Form field 'band' for `CC(CCN1CCc2nc(-c3ccccc3)c(-c3ccccc3)cc2C1)=NOC[C@@H](C)[C@H](OCc1ccccc1)C(C)C`
## Result low

## Task Form field 'band' for `COc1ccc(O[C@H]2C=C[C@@H](c3ccccc3)O[C@@H]2COC(=O)CCC(C)=NO[C@@H](C)c2cc(-c3c(C)cc(C)cc3C)no2)cc1`
## Result moderate

## Task Form field 'band' for Cc1cc2c(nc1C)CCCN2CC(C)ON=C1[C@H]2CCn3c(=O)n(-c4ccccc4)c(=O)n3[C@H]2[C@H](O)[C@@H]2O[C@H]12 (stereo partly drawn)
## Result low

## Task Form field 'band' for `COC(=O)CC=C[C@@H](C)[C@@H](C=NO[C@H](C)c1cn([C@@H]2COC[C@H]2O)nn1)OC`
## Result high

## Task Form field 'band' for `COC(=O)C1=C(C)[C@@H](O)[C@@H](C)[C@H](c2c(OC)c(OC)c(C)c(OC)c2OC)O1`
## Result moderate

## Task Form field 'band' for `COc1ccc([Si](C)(C)[C@H]2[C@H](CC(=O)N3CCC[C@H]3CO)O[C@@]3(C(=O)N(Cc4cccc(N5C(=O)COc6ccccc65)c4)c4ccccc43)[C@@H]2C)cc1`
## Result high

## Task Form field 'band' for `CC(C)=CCCC(C)=CCON=C1[C@H]2CCn3c(=O)n(C)c(=O)n3[C@H]2[C@H](O)[C@@H]2O[C@H]12`
## Result moderate

## Task Form field 'band' for `CC(C)=CCCC(C)=CCON=C1[C@H]2CCn3c(=O)n(Cc4cc5c(cc4Cl)OCO5)c(=O)n3[C@H]2[C@H](O)[C@@H]2O[C@H]12`
## Result low

## Task Form field 'band' for `COc1cccc([C@@H]2Oc3ccc(Br)cc3C(=O)[C@H]2O)c1`
## Result moderate

## Task Form field 'band' for `C=CCOC(=O)[C@H]1[C@@H]2C(=O)O[C@@H](c3ccccc3)[C@@H](c3ccccc3)N2[C@@H](c2ccc(OCCOC(=O)[C@H]3C[C@H]4C(=O)N[C@@H](Cc5ccccc5)C(=O)N4[C@H]3c3ccc(O)cc3)cc2)[C@]12C(=O)Nc1ccccc12`
## Result low
